assayedSystem: Anoctamin-1 (Mus musculus) (UniProt Q8BHY3)
Sequence (Q8BHY3 whole entry, looked up): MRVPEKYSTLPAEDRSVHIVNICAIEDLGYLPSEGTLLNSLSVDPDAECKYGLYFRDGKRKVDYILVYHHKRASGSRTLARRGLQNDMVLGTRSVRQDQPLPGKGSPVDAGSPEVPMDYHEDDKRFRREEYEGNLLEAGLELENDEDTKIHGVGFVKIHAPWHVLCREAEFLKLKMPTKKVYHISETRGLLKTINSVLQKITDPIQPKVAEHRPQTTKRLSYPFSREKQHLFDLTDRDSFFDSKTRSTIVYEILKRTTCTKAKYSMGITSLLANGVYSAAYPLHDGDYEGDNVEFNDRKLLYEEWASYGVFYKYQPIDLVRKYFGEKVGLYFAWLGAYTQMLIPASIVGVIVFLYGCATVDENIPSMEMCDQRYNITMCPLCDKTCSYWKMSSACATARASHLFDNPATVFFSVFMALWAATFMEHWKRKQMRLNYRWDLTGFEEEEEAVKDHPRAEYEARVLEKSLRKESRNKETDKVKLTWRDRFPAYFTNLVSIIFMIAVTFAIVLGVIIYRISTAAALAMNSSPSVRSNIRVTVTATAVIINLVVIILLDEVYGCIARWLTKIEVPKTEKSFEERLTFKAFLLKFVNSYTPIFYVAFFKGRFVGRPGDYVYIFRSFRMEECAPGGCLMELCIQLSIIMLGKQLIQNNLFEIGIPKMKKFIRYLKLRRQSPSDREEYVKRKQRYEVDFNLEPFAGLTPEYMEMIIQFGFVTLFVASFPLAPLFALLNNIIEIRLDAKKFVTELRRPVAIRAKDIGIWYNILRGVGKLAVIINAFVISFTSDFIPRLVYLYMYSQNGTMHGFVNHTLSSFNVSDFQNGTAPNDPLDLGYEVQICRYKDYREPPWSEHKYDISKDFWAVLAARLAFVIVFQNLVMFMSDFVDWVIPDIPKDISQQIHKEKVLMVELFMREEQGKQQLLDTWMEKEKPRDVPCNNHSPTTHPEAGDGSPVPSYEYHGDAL
assay: blockers of mouse ANO1 Ca-activated Cl channel – cell-based, HTS, primary screen (AID 588511)
experimentalSetup: HEK293 TMEM16A/YFP iodide influx fluorescence, ionomycin; at 10 µM
Hit rate of the full screen: of about 310,000 compounds, about 3,600 (1.2%) were called active.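 How the source made its calls: active means ratio plate-corrected score three or more library SD toward inhibition, starting fluorescence score within five deviations; inactive means the rest.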 Shown is part of a subset that was picked to be rich in actives.
Hi! Could you answer with just one of these? active, inactive

Here are 10 compounds together with their reported answers.
Cc1cc(F)ccc1N1CCC(N2CCN(C)C(CCO)C2)CC1 (stereo not drawn) = inactive
CCCCCCCCCCCCN1C(=O)CSC1c1cccnc1 (stereo not drawn) = active
COc1ccc(CCNC(=O)C(=O)NCC2OCCN2S(=O)(=O)c2ccc(F)cc2)cc1OC (stereo not drawn) = inactive
CN(C)c1ccc(-c2nnc(-c3cccnc3)o2)cc1 = inactive
CCCCCCOc1ccc(OC(=O)c2cccnc2)cc1 = inactive
O=[N+]([O-])c1cc(Cl)cc(/C=N/NC(=S)Nc2cc(S(=O)(=O)N3CCOCC3)ccc2Cl)c1O = active
O=C(N/N=C/c1cccc2cccnc12)[C@H]1C[C@@H]1c1ccccc1 = inactive
O=C(Cn1cnc2ccccc2c1=O)Nc1cccc(S(=O)(=O)N2CCCCC2)c1 = inactive
CN(C)CCCN1C(=O)CSC1c1ccc([N+](=O)[O-])cc1 (stereo not drawn) = inactive
O=c1cc(C(F)(F)F)[nH]c(=O)n1C1CCCCC1 = active

[Q] // param item: O=C(N/N=C1\CCSC1)c1cc(Cl)ccc1O ; yields the recorded call
[A] inactive

[Q] // param item: CCC(C(=O)NCc1cccnc1)n1nc(C)c2sc3ccccc3c2c1=O (stereo not drawn) ; yields the recorded call
[A] inactive

[Q] // param item: Cc1nnc(SCCCCSc2nnc(C)c(=O)[nH]2)[nH]c1=O ; yields the recorded call
[A] inactive

[Q] // param item: COc1ccc(S(=O)(=O)NCCCc2ccccc2)cc1 ; yields the recorded call
[A] inactive

[Q] // param item: O=C(NC(=S)Nc1ccc(Cl)c(C(=O)O)c1)c1cncc(Br)c1 ; yields the recorded call
[A] inactive

[Q] // param item: COc1ccc(CNC(=O)C(=O)N2CCC3(CC2)OCCN3S(=O)(=O)c2ccc(C)cc2)cc1 ; yields the recorded call
[A] inactive

[Q] // param item: Cc1noc(C)c1COC(=O)c1cc2ccccc2cc1O ; yields the recorded call
[A] active

[Q] // param item: O=C(NCc1ccc(F)cc1)C(c1ccccc1)N(C(=O)c1csnn1)C1CC1 (stereo not drawn) ; yields the recorded call
[A] inactive

[Q] // param item: Cc1ccc(NC(=O)Cn2c(=O)n(CCC(=O)NC3CCN(Cc4ccccc4)CC3)c(=O)c3ccccc32)cc1 ; yields the recorded call
[A] inactive

[Q] // param item: O=S(=O)(Nc1ccccc1Br)c1cccs1 ; yields the recorded call
[A] inactive

[Q] // param item: Cc1ccc(Nc2cc(=O)n(C3CCCCC3)c(=O)[nH]2)cc1C ; yields the recorded call
[A] inactive

[Q] // param item: COc1ccc(S(=O)(=O)NCCCCOc2ccc(Cl)cc2)cc1 ; yields the recorded call
[A] active

[Q] // param item: O=S(=O)(NCc1ccc(Cl)cc1Cl)c1cccs1 ; yields the recorded call
[A] inactive

----------
assayedSystem: Anoctamin-1 (Mus musculus) (UniProt Q8BHY3)
assay: blockers of mouse ANO1 Ca-activated Cl channel – cell-based, HTS, primary screen (AID 588511)
experimentalSetup: HEK293 TMEM16A/YFP iodide influx fluorescence, ionomycin; at 10 µM
The campaign covered roughly 310,000 compounds. About 3,600 (1.2%) were called active.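 Rule for the calls: active = ratio plate-corrected score three or more library SD toward inhibition, starting fluorescence score within five deviations; inactive = the rest.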 This is one part of a sample in which actives are shown more often than they occur.
Hi! Could you answer with just one of these? active, inactive

COc1ccc(SC[C@H](Cc2ccccc2)N2CCN(CCc3ccccc3)CCC2=O)cc1 = inactive
COc1ccnc(Oc2ccccc2)c1-c1ncn[nH]1 = inactive
CCN(Cc1ccccc1)C(=O)CN1C(=S)NC(C)(C)CC1C (centres undefined) = inactive

Now examine the next entry.
[Q] // param item: Cc1nc2c(C(=O)NCc3ccc4c(c3)OCO4)c[nH]n2c(=O)c1Cc1ccccc1F ; yields the recorded call
[A] active
